Where these numbers come from: patent US5637582A

tested on: vertebral artery; assay: Change of vertebral arterial blood flow in anesthetized dogs (Experimental Example 4); details: 100 μg/kg i.v., 10 min
Below: a set of entries, each annotated with reported Vertebral Arterial Blood Flow change (side effects).

| compound | result |
| --- | --- |
| CC(=O)O[C@H]1C(=O)N(CCN(C)C)c2ccc(C)cc2S[C@H]1c1ccc(C)cc1 [G, reference compound] | 7.0 Δ ml/min |

Which Vertebral Arterial Blood Flow change (side effects) reading was recorded for the compound `CC(=O)O[C@@H]1C(=O)N(CCN(C)C)c2ccc(C)cc2S[C@@H]1c1ccc(C)cc1` ?
-1.5 Δ ml/min

Which Vertebral Arterial Blood Flow change (side effects) reading was recorded for the compound `COc1ccc([C@H]2Sc3ccccc3N(CCN(C)C)C(=O)[C@H]2OC(C)=O)cc1` ?
0.0 Δ ml/min

Which Vertebral Arterial Blood Flow change (side effects) reading was recorded for the compound COc1ccc([C@@H]2Sc3ccccc3N(CCN(C)C)C(=O)[C@@H]2OC(C)=O)cc1 [H, reference compound] ?
7.5 Δ ml/min

----------
test system: arterial blood pressure; assay: Change of arterial blood pressure in anesthetized dogs (Experimental Example 4); conditions: 100 μg/kg i.v., 20 min
Below: a set of entries, each annotated with reported Arterial Blood Pressure change (side effects).

Answered cases to consult:
| compound | result |
| --- | --- |
| CC(=O)O[C@H]1C(=O)N(CCN(C)C)c2ccc(C)cc2S[C@H]1c1ccc(C)cc1 [G, reference compound] | 1.0 ΔmmHg |
| COc1ccc([C@@H]2Sc3ccccc3N(CCN(C)C)C(=O)[C@@H]2OC(C)=O)cc1 [H, reference compound] | 0.0 ΔmmHg |

Which Arterial Blood Pressure change (side effects) reading was recorded for the compound `COc1ccc([C@H]2Sc3ccccc3N(CCN(C)C)C(=O)[C@H]2OC(C)=O)cc1` ?
1.5 ΔmmHg

Which Arterial Blood Pressure change (side effects) reading was recorded for the compound `CC(=O)O[C@@H]1C(=O)N(CCN(C)C)c2ccc(C)cc2S[C@@H]1c1ccc(C)cc1` ?
-2.3 ΔmmHg

----------
Below: a set of entries, each annotated with reported Vertebral Arterial Blood Flow change (side effects).
system: vertebral artery; assay: Change of vertebral arterial blood flow in anesthetized dogs (Experimental Example 4); conditions: 100 μg/kg i.v., 20 min

Answered cases to consult:
| compound | measuredOn | result |
| --- | --- | --- |
| COc1ccc([C@H]2Sc3ccccc3N(CCN(C)C)C(=O)[C@H]2OC(C)=O)cc1 | vertebral artery | 0.0 Δ ml/min |
| COc1ccc([C@@H]2Sc3ccccc3N(CCN(C)C)C(=O)[C@@H]2OC(C)=O)cc1 [H, reference compound] | vertebral artery | 4.5 Δ ml/min |
| CC(=O)O[C@@H]1C(=O)N(CCN(C)C)c2ccc(C)cc2S[C@@H]1c1ccc(C)cc1 | vertebral artery | -2.8 Δ ml/min |

Shifting focus to the compound that follows.
Which Vertebral Arterial Blood Flow change (side effects) reading was recorded for the compound CC(=O)O[C@H]1C(=O)N(CCN(C)C)c2ccc(C)cc2S[C@H]1c1ccc(C)cc1 [G, reference compound] ?
3.5 Δ ml/min

----------
test system: femoral artery; test: Change of femoral arterial blood flow in anesthetized dogs (Experimental Example 4); format: in vivo, dog; settings: 100 μg/kg i.v., 10 min
propertyMeasured: Femoral Arterial Blood Flow change

Answered cases to consult:
| compound | Femoral Arterial Blood Flow change |
| --- | --- |
| CC(=O)O[C@H]1C(=O)N(CCN(C)C)c2ccc(C)cc2S[C@H]1c1ccc(C)cc1 [G, reference compound] | 9.5 Δ ml/min |
| CC(=O)O[C@@H]1C(=O)N(CCN(C)C)c2ccc(C)cc2S[C@@H]1c1ccc(C)cc1 [Compound A] | 13.0 Δ ml/min |

Query the reported Femoral Arterial Blood Flow change for femoral artery; item: COc1ccc([C@H]2Sc3ccccc3N(CCN(C)C)C(=O)[C@H]2OC(C)=O)cc1 [F]
63.5 Δ ml/min

Query the reported Femoral Arterial Blood Flow change for femoral artery; item: COc1ccc([C@@H]2Sc3ccccc3N(CCN(C)C)C(=O)[C@@H]2OC(C)=O)cc1 [H, reference compound]
8.0 Δ ml/min
